Source: ChEMBL document CHEMBL1157465

- ASSAYED_SYSTEM: Receptor-type tyrosine-protein kinase FLT3 (Homo sapiens)
- Sequence (P36888 whole entry): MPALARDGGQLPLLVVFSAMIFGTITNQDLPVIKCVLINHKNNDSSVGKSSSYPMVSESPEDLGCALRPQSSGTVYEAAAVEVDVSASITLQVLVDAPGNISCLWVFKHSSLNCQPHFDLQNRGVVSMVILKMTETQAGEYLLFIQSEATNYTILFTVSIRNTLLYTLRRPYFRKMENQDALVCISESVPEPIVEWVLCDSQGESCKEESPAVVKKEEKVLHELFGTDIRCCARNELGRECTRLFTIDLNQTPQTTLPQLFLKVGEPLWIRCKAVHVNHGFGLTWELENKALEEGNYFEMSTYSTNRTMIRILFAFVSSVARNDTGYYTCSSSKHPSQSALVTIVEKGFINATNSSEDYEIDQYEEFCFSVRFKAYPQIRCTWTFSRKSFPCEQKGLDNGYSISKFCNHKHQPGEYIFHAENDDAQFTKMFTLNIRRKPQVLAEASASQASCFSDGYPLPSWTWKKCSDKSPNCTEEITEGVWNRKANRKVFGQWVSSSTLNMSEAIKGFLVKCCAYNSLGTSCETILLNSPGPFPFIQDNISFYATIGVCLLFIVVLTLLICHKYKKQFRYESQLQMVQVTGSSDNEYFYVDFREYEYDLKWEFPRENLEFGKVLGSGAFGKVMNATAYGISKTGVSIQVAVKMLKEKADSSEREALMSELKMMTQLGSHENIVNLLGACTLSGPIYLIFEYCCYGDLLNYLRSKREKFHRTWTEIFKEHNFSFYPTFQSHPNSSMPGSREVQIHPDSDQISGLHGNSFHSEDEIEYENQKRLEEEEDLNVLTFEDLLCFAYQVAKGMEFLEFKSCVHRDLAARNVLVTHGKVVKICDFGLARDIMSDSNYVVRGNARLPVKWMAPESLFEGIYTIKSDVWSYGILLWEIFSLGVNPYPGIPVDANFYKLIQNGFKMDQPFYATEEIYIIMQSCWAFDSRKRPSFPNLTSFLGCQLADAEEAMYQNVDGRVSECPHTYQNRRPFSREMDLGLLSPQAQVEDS
- TEST_SUMMARY: Inhibition of human recombinant FLT3
pIC50: −log10 of the molar value.
Could you label it Condition met if measured pIC50 is 5 or higher, and Condition not met otherwise?

>>> df
                                   molecule  qualitative_label
0  COc1cc(C2=C(c3cn(C)c4ccccc34)C(=O)NC2)cc(OC)c1OC      Condition met
1  COc1cc(C2=C(c3c[nH]c4ccccc34)CNC2=O)cc(OC)c1OC      Condition met
2  COc1cc(C2=C(c3c[nH]c4ccccc34)C(=O)NC2)cc(OC)c1OC      Condition met
3  COc1cc(C2=C(c3cn(COCc4ccccc4)c4ccccc34)CNC2=O)cc(OC)c1OC  Condition not met
4  COc1cc(C2=C(c3cn(COC(C)(C)C)c4ccccc34)CNC2=O)cc(OC)c1OC  Condition not met
5  COCn1cc(C2=C(c3cc(OC)c(OC)c(OC)c3)C(=O)NC2)c2ccccc21  Condition not met
6  COc1cc(C2=C(c3c[nH]c4ccccc34)C(O)NC2=O)cc(OC)c1OC (stereo unspecified)  Condition not met
7  COc1ccc(C2=C(c3cn(C)c4ccccc34)C(=O)NC2)cc1  Condition not met
8  COc1cc(C2=C(c3cn(COCC[Si](C)(C)C)c4ccccc34)CNC2=O)cc(OC)c1OC  Condition not met
9  COc1cc(C2=C(c3cn(CC(O)CO)c4ccccc34)CNC2=O)cc(OC)c1OC (stereo unspecified)      Condition met

###

IC50 values by entry
- ASSAYED_SYSTEM: Vascular endothelial growth factor receptor 3 (Homo sapiens, UniProt P35916)
- Sequence (P35916 whole entry): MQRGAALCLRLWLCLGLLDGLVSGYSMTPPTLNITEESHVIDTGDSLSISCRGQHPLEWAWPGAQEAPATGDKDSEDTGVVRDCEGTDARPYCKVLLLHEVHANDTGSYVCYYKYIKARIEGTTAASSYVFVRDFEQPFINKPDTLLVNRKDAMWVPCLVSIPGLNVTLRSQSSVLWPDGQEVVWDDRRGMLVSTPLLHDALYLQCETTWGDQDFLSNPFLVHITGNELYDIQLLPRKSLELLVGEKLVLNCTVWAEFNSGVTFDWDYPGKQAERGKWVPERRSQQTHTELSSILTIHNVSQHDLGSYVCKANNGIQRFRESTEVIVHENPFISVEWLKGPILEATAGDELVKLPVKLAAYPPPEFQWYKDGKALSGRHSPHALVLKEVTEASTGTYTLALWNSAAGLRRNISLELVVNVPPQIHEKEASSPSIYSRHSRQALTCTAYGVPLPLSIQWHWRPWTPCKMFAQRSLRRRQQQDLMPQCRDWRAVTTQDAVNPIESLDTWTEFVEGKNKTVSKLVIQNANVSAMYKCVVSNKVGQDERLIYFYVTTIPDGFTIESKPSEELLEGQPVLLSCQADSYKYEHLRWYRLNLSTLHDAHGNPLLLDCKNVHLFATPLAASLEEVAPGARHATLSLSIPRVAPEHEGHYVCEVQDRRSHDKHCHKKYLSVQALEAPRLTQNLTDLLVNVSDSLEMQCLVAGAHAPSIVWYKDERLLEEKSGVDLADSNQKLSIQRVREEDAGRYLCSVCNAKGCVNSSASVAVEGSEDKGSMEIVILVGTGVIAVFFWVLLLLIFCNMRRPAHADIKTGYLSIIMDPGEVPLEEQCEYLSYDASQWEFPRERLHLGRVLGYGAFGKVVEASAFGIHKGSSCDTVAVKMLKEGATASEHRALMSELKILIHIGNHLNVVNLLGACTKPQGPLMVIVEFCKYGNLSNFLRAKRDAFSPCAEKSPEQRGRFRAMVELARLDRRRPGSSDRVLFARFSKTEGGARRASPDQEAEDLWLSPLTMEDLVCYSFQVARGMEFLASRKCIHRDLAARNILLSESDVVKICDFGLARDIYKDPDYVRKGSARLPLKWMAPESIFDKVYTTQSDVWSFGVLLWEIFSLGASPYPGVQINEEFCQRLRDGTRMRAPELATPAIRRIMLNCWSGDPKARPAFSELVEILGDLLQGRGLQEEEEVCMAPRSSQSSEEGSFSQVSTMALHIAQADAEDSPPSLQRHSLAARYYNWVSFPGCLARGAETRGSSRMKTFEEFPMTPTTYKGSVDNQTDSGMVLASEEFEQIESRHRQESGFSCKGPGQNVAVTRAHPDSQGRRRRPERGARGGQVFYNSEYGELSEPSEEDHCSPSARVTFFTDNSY
- TEST_SUMMARY: Inhibition of human recombinant VEGFR3
ASSAY_READOUT: IC50

                                    compound    result
 0  COc1cc(C2=C(c3c[nH]c4ccccc34)C(=O)NC2)cc(OC)c1OC    9.4 µM
 1  COc1cc(C2=C(c3cn(CC4COC(C)(C)O4)c4ccccc34)CNC2=O)cc(OC)c1OC (stereo not given)    3.2 µM
 2  COc1ccc(C2=C(c3c[nH]c4ccccc34)C(=O)NC2)cc1    8.7 µM
 3  COc1cc(C2=C(c3cn(COc4ccccc4)c4ccccc34)CNC2=O)cc(OC)c1OC    2.5 µM
 4  COc1cc(C2=C(c3c[nH]c4ccccc34)C(O)NC2=O)cc(OC)c1OC (stereo not given)    3.4 µM
 5  COc1cc(C2=C(c3cn(COC(C)(C)C)c4ccccc34)CNC2=O)cc(OC)c1OC    4.8 µM
 6  COc1cc(C2=C(c3cn(CC(O)CO)c4ccccc34)CNC2=O)cc(OC)c1OC (stereo not given)    2.5 µM
 7  COCn1cc(C2=C(c3cc(OC)c(OC)c(OC)c3)C(=O)NC2)c2ccccc21    3.2 µM
 8  COc1cc(C2=C(c3cn(COCC[Si](C)(C)C)c4ccccc34)CNC2=O)cc(OC)c1OC    5.6 µM
 9  CCOCn1cc(C2=C(c3cc(OC)c(OC)c(OC)c3)C(=O)NC2)c2ccccc21    3.6 µM
10  COc1cc(C2=C(c3cn(COCc4ccccc4)c4ccccc34)CNC2=O)cc(OC)c1OC    1.7 µM
11  COc1ccc(C2=C(c3cn(C)c4ccccc34)C(=O)NC2)cc1     18 µM
12  COc1cc(C2=C(c3cn(COC(C)C)c4ccccc34)CNC2=O)cc(OC)c1OC    5.3 µM
13  COc1cc(C2=C(c3c[nH]c4ccccc34)CNC2=O)cc(OC)c1OC  0.037 µM
14  COc1cc(C2=C(c3cn(C)c4ccccc34)C(=O)NC2)cc(OC)c1OC     11 µM
